System: Colon adenocarcinoma No. 38
procedure-text: Growth inhibition test on Colon adenocarcinoma No. 38
Format: in vivo, mice (BDF1)
condition-parameters: 60 mg/kg daily, orally, once a day for 8 days; tumor weight on 30th day
metric-name: G.I. (growth inhibition)
Please state the value followed by its unit.

## Input Item CC(CN1CC(=O)N(CN2CCOCC2)C(=O)C1)N1CC(=O)N(CN2CCOCC2)C(=O)C1 (racemic) : provide G.I. (growth inhibition)
## Output 91.6%

## Input Item O=C1CN(CCN2CC(=O)N(CN3CCOCC3)C(=O)C2)CC(=O)N1CN1CCOCC1 [reference compound] : provide G.I. (growth inhibition)
## Output 72.8%

## Input Item O=C1CN(CCN2CC(=O)N(CN3CCN(c4ccccc4)CC3)C(=O)C2)CC(=O)N1CN1CCN(c2ccccc2)CC1 : provide G.I. (growth inhibition)
## Output 97.9%

## Input Item CC1CC(C)CN(CN2C(=O)CN(CCN3CC(=O)N(CN4CC(C)CC(C)C4)C(=O)C3)CC2=O)C1 (stereo not shown) : provide G.I. (growth inhibition)
## Output 83.1%
